System: ρ^o cells (cell line 206)
Experiment: Growth inhibition studies in ρ° cells devoid of mitochondrial DNA
Format: cell-based
Conditions: ρ° vs wild type 143B cells
Each entry below carries its recorded Ratio of 50% growth inhibition dose, ρ° to wild type (times more resistant).
The reply should be a number, written without any unit.

Report Ratio of 50% growth inhibition dose, ρ° to wild type (times more resistant) for `COc1cccc2c1C(=O)c1c(O)c3c(c(O)c1C2=O)C[C@@](O)(C(=O)CO)C[C@@H]3O[C@H]1C[C@H](N)[C@H](O)[C@H](C)O1` please.
1

Now consider `CC(=O)O[C@H]1C(=O)[C@@]2(C)[C@H]([C@H](OC(=O)c3ccccc3)[C@]3(O)C[C@H](OC(=O)[C@H](O)[C@@H](NC(=O)c4ccccc4)c4ccccc4)C(C)=C1C3(C)C)[C@]1(OC(C)=O)CO[C@@H]1C[C@@H]2O` .
1

Now consider `CC[C@]1(O)C[C@@H]2CN(CCc3c([nH]c4ccccc34)[C@@](C(=O)OC)(c3cc4c(cc3OC)N(C)[C@H]3[C@@](O)(C(=O)OC)[C@H](OC(C)=O)[C@]5(CC)C=CCN6CC[C@]43[C@@H]65)C2)C1` .
1

Now consider `Cc1cc2nc3cc(C)c(N)cc3[n+](-c3ccccc3)c2cc1N.[Cl-]` .
6

***
Report Ratio of 50% growth inhibition dose, ρ° to wild type (times more resistant) for `O=CC[C@@H](O)[C@H](O)[C@H](O)CO` please.
0.05

Measured values drawn from patent US7338940B2 for this set.
